Tested on: velvetleaf
assay_details: Test B pre/postemergence velvetleaf
Format: in vivo, Abutilon theophrasti
condition_label: Preemergence, Rate 62 g/ha; scale of 0 to 10 where 0 is no effect and 10 is complete control
Known Velvetleaf plant response rating of a selection of compounds

# compound, assay_system, Velvetleaf plant response rating
data = [
    ("CC(C)N(C(=O)n1oc(=O)n(CCC2=NOCCC2)c1=O)c1ccc(F)cc1 [Compound 656]", "velvetleaf", 2),
    ("CC(=O)OCC(CCl)n1c(=O)on(C(=O)N(c2ccc(F)cc2F)C(C)C)c1=O (racemic) [Compound 708]", "velvetleaf", 0),
    ("C#CC=CC(C)(C)n1c(=O)on(C(=O)N(c2ccccc2)C(C)C)c1=O [Compound 655]", "velvetleaf", 0),
    ("Cc1nc(C)c(Cn2c(=O)on(C(=O)N(c3ccc(F)cc3)C(C)C)c2=O)s1 [Compound 232]", "velvetleaf", 0),
    ("CC(=O)NCCn1c(=O)on(C(=O)N(c2ccc(F)cc2)C(C)C)c1=O [Compound 727]", "velvetleaf", 0),
    ("CC(C)N(C(=O)n1oc(=O)n(C(C)C=O)c1=O)c1ccccc1 (stereo not shown) [Compound 693]", "velvetleaf", 0),
    ("CC(C)N(C(=O)n1oc(=O)n(-c2ccc3ccccc3c2)c1=O)c1ccc(Cl)cc1 [Compound 333]", "velvetleaf", 0),
    ("CC(C)N(C(=O)n1oc(=O)n(Cc2ccco2)c1=O)c1ccc(F)cc1F [Compound 208]", "velvetleaf", 0),
    ("CC(C)N(C(=O)n1oc(=O)n(C2CCOCC2)c1=O)c1ccc(F)cc1 [Compound 310]", "velvetleaf", 2),
    ("CC(=O)Cn1c(=O)on(C(=O)N(c2ccc(F)cc2)C(C)C)c1=O [Compound 217]", "velvetleaf", 0),
]

* * *

Tested on: wild oat
assay_details: Test B pre/postemergence wild oat
Type: in vivo, Avena fatua
condition_label: Preemergence, Rate 62 g/ha; scale of 0 to 10 where 0 is no effect and 10 is complete control

# compound, Plant response rating, Wild oats
records = [
    ("CC(C)N(C(=O)n1oc(=O)n(CCCl)c1=O)c1ccccc1", 7),
    ("Cc1nc(C)c(C(C)n2c(=O)on(C(=O)N(c3ccccc3)C(C)C)c2=O)s1 (stereo not shown)", 0),
    ("CC(C)N(C(=O)n1oc(=O)n(CC(=O)C2CC2)c1=O)c1ccccc1", 0),
    ("CC(C)N(C(=O)n1oc(=O)n(CC(=O)N(C)C)c1=O)c1ccc(Cl)cc1", 0),
]

* * *

Known Plant response rating, Rape of a selection of molecules
Tested on: rape
assay_details: Test B pre/postemergence rape
Format: in vivo, Brassica napus
condition_label: Preemergence, Rate 250 g/ha; scale of 0 to 10 where 0 is no effect and 10 is complete control

# molecule, Plant response rating, Rape
records = [
    ("CC(C)N(C(=O)n1oc(=O)n(C2CCCCC2)c1=O)c1ccc(F)cc1F [Compound 115]", 0),
    ("Cc1nn(C)c(Cl)c1-n1c(=O)on(C(=O)N(c2ccc(F)cc2F)C(C)C)c1=O [Compound 96]", 0),
    ("CCn1c(=O)on(C(=O)N(c2ccccc2)C(C)C)c1=O [Compound 117]", 10),
]
